Assay: Binding affinity to NET in Sprague-Dawley rat brain synaptosomes assessed as induction of [3H]MPP+ release by liquid scintillation counting method
Format: subcellular
reportedProperty: EC50 (nM)
Number in nM, nothing else.

Examples from the recorded data:
CNC(C)Cc1ccc2c(c1)OCO2 (racemic): 72
CNC(C)C(=O)c1ccc2c(c1)OCO2 (racemic): 152
CNC(C)Cc1ccc2c(c1)OCCO2 (racemic): 325

The compound listed as CN[C@H](C)Cc1ccc2c(c1)OCCO2 has a reported EC50 of 1950

The compound CNC(C)C(=O)c1ccc2c(c1)OCCO2 (racemic) showed EC50 equal to 327

# EC50 (compound: CN[C@@H](C)Cc1ccc2c(c1)OCCO2 ) is 239
